Data origin, for the record: patent US9315522B2

Experiment: Cytotoxicity MTT assay (HELAM)
Type: cell-based, Human
Conditions: human, HelaM cells, read-out: HELAM (222.125) CC50
Protocol: Cytotoxicity of the compounds was evaluated using the MTT assay. Human HelaM cells grown in 96-well plates were exposed to serial dilutions of the tested compounds (final volume of 0.2 ml) and incubated for 72 hours at 37° C. and 5% CO2. […] Cell viability was determined by measuring the absorbance of the reduced formazan, giving a purple color, at 540 nm and 690 nm. […] The percent cytotoxicity achieved by the compounds was calculated according to standard methods. […]
readout.type: CC50 at 72 h

Use the examples below as a reference point.
Query Cc1nc(N)ccc1/C=C/C(=O)N1CC2C=C(c3ccccc3)CC2C1 (stereo not shown) yields CC50 at 72 h of 3.11 µg/mL

Query Cn1nccc1C1=CC2CN(C(=O)/C=C/c3cnc4c(c3)CNCC(=O)N4)CC2C1 (stereo not shown) yields CC50 at 72 h of > 10.2 µg/mL

Now, please, on to the next compound.
Query O=C(Cc1ccncc1)Nc1ccc(/C=C/C(=O)N2CC3C=C(c4ccncc4)CC3C2)cn1 (stereo not shown) yields CC50 at 72 h of > 4.51 µg/mL
